Molecular target: Phosphatidylinositol 4,5-bisphosphate 3-kinase catalytic subunit delta isoform (Homo sapiens)
Sequence (O00329 whole entry): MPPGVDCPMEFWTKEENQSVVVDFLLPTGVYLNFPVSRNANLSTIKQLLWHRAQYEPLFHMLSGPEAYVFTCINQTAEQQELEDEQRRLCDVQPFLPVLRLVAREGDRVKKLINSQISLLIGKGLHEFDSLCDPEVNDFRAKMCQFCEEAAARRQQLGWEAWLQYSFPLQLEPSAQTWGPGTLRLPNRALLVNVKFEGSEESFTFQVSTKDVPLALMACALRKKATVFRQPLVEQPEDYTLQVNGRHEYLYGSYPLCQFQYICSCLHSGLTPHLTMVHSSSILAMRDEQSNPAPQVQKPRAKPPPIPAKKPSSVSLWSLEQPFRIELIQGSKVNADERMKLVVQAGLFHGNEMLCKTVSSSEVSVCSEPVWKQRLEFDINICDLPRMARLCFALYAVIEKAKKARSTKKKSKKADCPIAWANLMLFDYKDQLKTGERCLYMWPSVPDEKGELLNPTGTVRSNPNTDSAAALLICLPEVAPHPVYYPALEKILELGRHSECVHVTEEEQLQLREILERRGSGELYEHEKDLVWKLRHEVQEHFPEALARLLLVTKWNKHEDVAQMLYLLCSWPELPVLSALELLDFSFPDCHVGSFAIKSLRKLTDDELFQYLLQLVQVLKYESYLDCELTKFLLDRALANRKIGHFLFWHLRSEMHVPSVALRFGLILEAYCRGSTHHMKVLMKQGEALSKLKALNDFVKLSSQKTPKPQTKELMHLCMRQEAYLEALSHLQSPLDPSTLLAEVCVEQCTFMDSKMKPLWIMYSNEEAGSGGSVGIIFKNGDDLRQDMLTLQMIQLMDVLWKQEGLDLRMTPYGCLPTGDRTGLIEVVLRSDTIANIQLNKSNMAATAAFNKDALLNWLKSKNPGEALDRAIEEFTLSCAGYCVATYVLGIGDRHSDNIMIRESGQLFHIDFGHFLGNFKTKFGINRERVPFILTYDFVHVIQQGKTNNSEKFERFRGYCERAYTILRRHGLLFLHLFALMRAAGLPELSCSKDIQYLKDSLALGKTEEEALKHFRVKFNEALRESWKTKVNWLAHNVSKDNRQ
Assay: Inhibition of recombinant PI3K p110delta using L-alpha-phosphatidylinositol as substrate and [gamma33P]ATP after 60 mins by thin layer chromatographic technique
Entries and their IC50 values follow.
reported-endpoint: IC50

INSERT INTO results (molecular_string, reported_endpoint, result_value) VALUES
  ('CC(C)c1ccc([N+](=O)[O-])cc1S(=O)(=O)N(C)/N=C/c1cnn2ccc(C#N)cc12', 'IC50', '39 nM'),
  ('Cc1ccc([N+](=O)[O-])cc1S(=O)(=O)N(Cc1ccccc1)/N=C/c1cnn2ccc(C#N)cc12', 'IC50', '32 nM'),
  ('Cc1ccc([N+](=O)[O-])cc1CN(C)/N=C/c1cnn2ccc(C#N)cc12', 'IC50', '37 nM'),
  ('Cc1ccc(Cl)cc1S(=O)(=O)N(C)/N=C/c1cnn2ccc(C#N)cc12', 'IC50', '230 nM'),
  ('CN(C)c1ccc([N+](=O)[O-])cc1S(=O)(=O)N(C)/N=C/c1cnn2ccc(C#N)cc12', 'IC50', '24 nM'),
  ('COc1ccc([N+](=O)[O-])cc1S(=O)(=O)N(C)/N=C/c1cnn2ccc(C#N)cc12', 'IC50', '22 nM'),
  ('Cc1c([N+](=O)[O-])cccc1S(=O)(=O)N(C)/N=C/c1cnn2ccc(C#N)cc12', 'IC50', '> 1000 nM'),
  ('Cc1ccc([N+](=O)[O-])cc1S(=O)(=O)N(CCN(C)C)/N=C/c1cnn2ccc(C#N)cc12', 'IC50', '180 nM'),
  ('Cc1ccc(Br)cc1S(=O)(=O)N(C)/N=C/c1cnn2ccc(C#N)cc12', 'IC50', '180 nM'),
  ('Cc1cccc([N+](=O)[O-])c1S(=O)(=O)N(C)/N=C/c1cnn2ccc(C#N)cc12', 'IC50', '100 nM'),
  ('Cc1cc([N+](=O)[O-])ccc1S(=O)(=O)N(C)/N=C/c1cnn2ccc(C#N)cc12', 'IC50', '> 1000 nM'),
  ('Cc1ccc([N+](=O)[O-])cc1S(=O)(=O)N(CCO)/N=C/c1cnn2ccc(C#N)cc12', 'IC50', '54 nM'),
  ('CN(/N=C/c1cnn2ccc(C#N)cc12)C(=O)c1cccc([N+](=O)[O-])c1', 'IC50', '16 nM'),
  ('Cc1ccc(S(C)(=O)=O)cc1S(=O)(=O)N(C)/N=C/c1cnn2ccc(C#N)cc12', 'IC50', '200 nM'),
  ('CC(=O)Nc1ccc(C)c(S(=O)(=O)N(C)/N=C/c2cnn3ccc(C#N)cc23)c1', 'IC50', '> 1000 nM'),
  ('CN(/N=C/c1cnn2ccc(C#N)cc12)S(=O)(=O)c1cc([N+](=O)[O-])ccc1F', 'IC50', '120 nM'),
  ('Cc1ccc(C(=O)O)cc1S(=O)(=O)N(C)/N=C/c1cnn2ccc(C#N)cc12', 'IC50', '> 1000 nM'),
  ('Cc1ccc(F)cc1S(=O)(=O)N(C)/N=C/c1cnn2ccc(C#N)cc12', 'IC50', '310 nM'),
  ('CCN(/N=C/c1cnn2ccc(C#N)cc12)S(=O)(=O)c1cc([N+](=O)[O-])ccc1C', 'IC50', '9.3 nM');
